These measurements were taken from paper PMC9482650.

Target: T1, MPP2, Q14168
T1 sequence (Q14168 180-250, limits assumed, looked up): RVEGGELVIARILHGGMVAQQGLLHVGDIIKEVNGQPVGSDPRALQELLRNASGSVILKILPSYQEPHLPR
Assay: holdup assay
Parameters: key: below the threshold = too weak to quantify, mostly under pKd 3.1 to 4
Details: plain residues with an end cap or a label only (N-terminal biotin on a linker: ado-ado)
PROPERTY: pKd

See these solved cases before continuing.
VKRNSKETVV [MARCHF3, Q86UD3] | below the threshold
EKCGKEFSEF [PRKACA, P17612] | below the threshold
NTANRRTTPV [CACNG2, Q9Y698] | below the threshold
DPAESMESLV [PTPRG, P23470] | below the threshold
GTGYDRKDYV [CLDN3, O15551] | below the threshold

Which pKd is listed for PYPTADHMLA [JUP, P14923] ?
below the threshold

Which pKd is listed for AAVENKVTDL [PLXNB1, O43157] ?
below the threshold

Which pKd is listed for SPDRDRESIV [SCN5A, Q14524] ?
below the threshold

Which pKd is listed for LAHVKHKEQI [AQP3, Q92482] ?
below the threshold

Which pKd is listed for ARGPPRESEV [FAM110D, Q8TAY7] ?
below the threshold
